B1: CPEB3 Ribozyme (parent)
chain: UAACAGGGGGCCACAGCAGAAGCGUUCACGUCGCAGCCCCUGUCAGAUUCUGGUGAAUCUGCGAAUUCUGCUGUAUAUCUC

- Variants of: B1
- ASSAY PROCEDURE: self-cleavage, relative activity (ratio to wild type); higher = more cleavage; in vitro, sequencing
Label Yes when self-cleavage is at or above 0.4; otherwise label No.

Worked examples, 4 variants total:
>  <MUTATION NAME>
U48C G73U

>  <CATEGORY>
Yes

$$$$
>  <MUTATION NAME>
U26A C40G

>  <CATEGORY>
No

$$$$
>  <MUTATION NAME>
C38G U43A

>  <CATEGORY>
No

$$$$
>  <MUTATION NAME>
C37A A45G

>  <CATEGORY>
No

$$$$

Q: Determine whether measured self-cleavage meets or exceeds 0.4 for C37U U76C
Ans: Yes

Q: Quick one: A28G U78G
Ans: Yes

Q: Quick one: A57U U76C
Ans: Yes
